Data origin: the nanobody polyreactivity screen of Harvey et al. (2022)

protocol-text: yeast display, Sf9 membrane polyspecificity reagent, FACS + sequencing; frameworks hold sequencing errors
quantity-name: polyreactivity (PSR sort gate)

QVQLVESGGGLVQAGGSLRLSCAASGGTFPGYTMGWNRQAPGKERELVAAISGSGVSTYYADSVKGRFTISRDNAKNTVYLQMNSLKPEDTAVYYCARTYRSYSRYPFVRFDYWGQGTQVTVSS: high polyreactivity
QVQRVESGGGLVQAGGSLRLSCAASGSIVQQYAMGWYRQAPGKERELVAAISYSGGTTYYADSVKGRFTISRDNAKTTVYLQMNSLKPEDTAVYYCAAYYPSGSYDYYWGQGTQVTVSS: low polyreactivity
QVQLVESGGGLVQAGGSLRLSCAASGRIFNQSGMGWYRQAPGKERELVAAIRSGDSTNYADSVKGRFTISRDNAKNTVYLQMNSLKPEDTAVYYCAKDSDYPDYVSTKGDYDYWGQGTQVTVSS: low polyreactivity
QVQLVESGGGLVQAGGSLRLSCSASGRTFYHYTMGRYIQAPGKERELVAAITSGGSTYYADSVKGRFPISRDNAKNTVYLQMNSLKPEDTAVYYCARVRPLYHYSRYDYWGQGTQVTVSS: high polyreactivity
QVQLVESGGGLVKAGGSLRLSCAASGRTFLRNAMGWYRQAPGKERELVATITRGGSTYYADSVKGRFTISRDNAKYTCYLEIISLIPEDTAVYYCAKDITGGFRRPDYGYLGQGTQVTVSS: low polyreactivity
QVQLVESGGGLVQAGGSLRLSCAASGSIFKYYAMGWYRQAPGKERELVAAITSSGARTYYADSVKGRFTISRDNAKNTVYLQMNSLKPEDTAVYYCRGYVRDQSKYDYWGQGTQVTVSS: high polyreactivity
QVQLVESGGGLVQAGGSLRLSCAASGRIFRFYAMGWYRPAPGKERELVAAISWNGGRTYYAVSVKGRFTISRDNAKNTVYLQMNSLKPEVTAVYYCATEFYYHWYSPFDYWGQGTQVTVSS: high polyreactivity
QVQLEESGGGLVQAGGSLRLSCAASGFTFNKYAMGWYRQAPGKERELVDAISSSGGSTRYADSVKGRFKISRDNAKNTVYLQMNSLKPEDSAVYYCAVYVTRDSGWWLYDYWGQGTQVTVAS: high polyreactivity
QVQLVESGGGLVQAGGSLRLSCAASGFTFAYNAMGWYRQAPGKETELVAAINSGGGRTYYADSVKGRFTISRDNAKNTVYLQMNSLKPEATAVYYCNAYPYKLDYDYWGQGTQVTVSS: high polyreactivity
QVQLLESGGGLVQAGGSLRLSCAASGLTIKQYAMGWYRQAPGKESELVAAISKSGGRTYYADSVKGRFTISRDNAKNTVYLQMNSLKPEDTAVYYCNARAGQRQGWEYDYWGQGTQVTVSS: high polyreactivity
QVQLVESGGGLVQAGGSLRLSCAASGSIFTYYAMGWYRQAPGKERELVATITGLGGRTYYADSVKGRFTISRDIAKNTVYLQMNSLKPEDTAVYYCAVVPETRYYYWGHGTQVTVSS: high polyreactivity

* * *

protocol-text: yeast display, Sf9 membrane polyspecificity reagent, FACS + sequencing; frameworks hold sequencing errors
quantity-name: polyreactivity (PSR sort gate)

QVQLVESGGGLVQAGGSLRLSCAASGGTFSPYDMGWYRQAPGKERELVASITGSGGSTYYADSVKGRFTISRGNAKNTVYLQMNSLKPEDTAVYYCAAQGYWTYWPYLLRLYDYWGQGTQVTVSS: low polyreactivity
QVQLVESGGGIVQAGGSLRLSCAASAIIFLDNPMGWSRQAPGKERELVADITSSGGSTYYADSVKGRFTISRDNAKNTVSLQMNSLKPEDTAVYYCAKYVYGKFDGVRFSYDYWGQGTQVTVSS: low polyreactivity
QVQHVESGGGLVQAGGSLRLSCAASGSTFAFYAMGWYRQAPGKERELVAAITWRVGSTYYADSVKGRFTISRDNAKNTVYLQMNSLKPEDTAVYYCAVDIPFYDSDYCGQGTQVTVSS: low polyreactivity
QVQLVESGGGLVQAGGSLRLSCAASGFIFTRNVMGWNRQAPGKERELVAAISSGGRTYYADSVKGRFTISRDNAKKTVYFQMISLKPEDTAVYYCNAGNRGVYRYDYWGQGTQVTVSS: high polyreactivity
QVQLVESGGGLVQAGVSLRLSCAASGRIFGPYAMGWYRQAPGKERELVAAITWRGDRTYYADSVKGRFTISRDNAKNTVYLQMNSLKPEDTAVYYCAARGGRSEYDYWGLGTQVTVSS: low polyreactivity
QVQLVESGGGLVQAGGSLRLSCAASGFNFYGYAMGWYRQAPGKERQLVATISRGGSTTYYADSVKGRFTISRDNAKNTVYLQMNSLKPEDTAVYYCAAYNVIYTRRMYYWGQGTQVTVSS: high polyreactivity
QVQLVESGGGLVQAGGSLRLSCAASGSIFDSNAMGWYRQAPGKERELVAAITGSGSTNYADSVKGRFTISRDNAKNTVYLQMNSLKPEDTAVYYCNAQAPYTEFDYWGQGTQVTVSS: low polyreactivity
QVQLVESGGGLVQAGGSLRLSCAASGSTFYPYAMGWYRQAPGKERELVAAISYSGGSTYYADSVKGRFTISRDNAKNTVYLQMNSLKPEDSAVYYCAAYYRRQFTSYGNYYYWGQGTQVTLSS: high polyreactivity
QVQLVESRGGLVQAGGSLRLRCAASGRIIIAYMAWYRQAPGKERELVAAIDSGASTYYADSVKGRFTISRDNAKNNVYLQMNSLIAEDTAVYYCASDVVYDYGGMDYWGQGTQVTVSS: low polyreactivity
QVQLVESGGGLVQAGGSLRLSCADSGSIFLWNTMGWYRQAPGKERELVAAINFSGTRTYYADSVKGRFTISRDNAKNTVYLQMNSLKPEDTAVYYCNARTSRRLDYDYWGQGTQVTVSS: high polyreactivity
QVQLVESGGGLVQAGGSLRLSCAASGSTFNVYSMGWYRQAPGKERELVAAIDTGDGSTFYADSVKGRFTISRDNAKNTVYLQMNSLKPEDTAVYYCAAEFWAIVDGDYCGQGTQVTVSS: high polyreactivity

* * *

protocol-text: yeast display, Sf9 membrane polyspecificity reagent, FACS + sequencing; frameworks hold sequencing errors
quantity-name: polyreactivity (PSR sort gate)

QVQLVESGGGLVQAGGSLRLSCAASGSIFDYNAMGWNRQAPGKETELVAAITSTDSTYADSVKGRFTISRDNAKNTVYLQMNSLKPEDTAVYYCAAEDVIYYLTGQWREYDYWGQGTQVNVSS: low polyreactivity
QVQLVESGGGLVQAGGSLRLSCAASGSIFSYYAMGWYRQAPGKERELVASISWNGTSTYYADSVKGRFTISRDNAKNTVYLQMNSLKPEDTAVYYCNAVLSGWGYFYGLNYWGQGTQVTVSS: low polyreactivity
QVQLVESGGGLVQAGGSLRLSCAASGFTLVGYAMGWYRQAPGKERELVADINYSGGRTYYADSVKGRFTISRDNAKNTVYLQMNSLNPEDTAVYYCNAAGALSWFYYGYDYWGQGTQVTVSS: low polyreactivity
QVQLVESGAGLVQAGGSLRLSCAPSGRIFDKYAMGWYRQAPGTERELVAAIDWSGGSTYYADSVKGRFTISRDNAKNTVYLQMNCLKPEDTAVYYCAAYWYYEDGQSEARLYGYDYWGQGTQVTVSS: low polyreactivity
QVQLVESGGGLVQAGGSLRLSWAASGSTFDYYAMGWYRQAPGKERELVAAIRWSDGSTYYADSVKGRFTISRDNAKNTVYLQMNSLKPEDTAVYYCAADALYWIGRMDYWGQGTQVTVSS: low polyreactivity

* * *

protocol-text: yeast display, Sf9 membrane polyspecificity reagent, FACS + sequencing; frameworks hold sequencing errors
quantity-name: polyreactivity (PSR sort gate)

QVQLVESGGGLVQAGGSLRLSCAASGSTFYSYAMGWYRQAHGQERELVAAISYSGGSTYYADSVKGRFTISRDNAKNTVYLQMNSLKPADTAVYYCNARAVYPAGYAYDYWGQGTQVTVSS: high polyreactivity
QVQLVESGGGLVQAGGSLRLSCAASGSTFARYAMGWYRQAPGKERELVAGISTSGGRTYYADSVKGRFTISRDNAKNTVYLQMTSLKPEDTAVYYCAKALSQTWYDGQYGYWGQGTQVTVSS: low polyreactivity
QVQLVESGGGLVQAGGSLRLSCAASGRTFDYYAMGWYRQAPGKERELVARISWNGGSTRYADSVKGRFTISRDNAKNTVYLQMNSLKPEDTAVYYCAARYILLARKYDYWGQGTQVTVSS: high polyreactivity
QVQLVESGGGLLQAGGSLRLSCAASGRTFRYYTMGWYRQAPGKEREFVAAISSTGRTYYGDSVKGRFTISRDNAKNTVYLQMNSLKPEDTAVYYCAATFIQVVVNVQLYDYDYWGQGTQVTVSS: low polyreactivity
QVQLVESGGGLVQAGGSLRLSCAASGSIFRFNAMGWYRPAPGKERELVAAISDSGGRTYYADSVKGRFTISRDNAKNTVYLQMNSLKPEDTAVYYCNAYVHTQGGDYWGQGTQVTVSS: high polyreactivity
QVQLVESRGGLVQAGGSLRLSCAASGNTFQPYAMGWYRQAPGKERELVAAITWSGDTTYYADSVKARFTISRDNAKNTVYLQMNSLKPEDTAVYYCYPYFWYPDGYTYDYWGQGTQVTVSS: high polyreactivity
QVQLVESGGGLVQAGGSLRLSCAASGRILTSNAMGWYRQAPGKERELVAAITYSGDSTYYADSVKGRFTISRDTAKNTVYLQMNSLKPEDTEVYYCAADVLKHFYSFGDERGFPFDYWGQGTQVTVSS: low polyreactivity
QVQLVESGGGLVQAGGSLRLSCAASGFIFSQYAMGWYRQAPGKERELVAAISYSGGSTYYADSVKGRFTISRDNAKNTVYLQMNSLKPEDTAVYYCAVSGRSYYRSDYWGQGTQVTVSS: high polyreactivity
QVQLVESGGGLVQAGGSLRLSCAASGIIFERYAMGWYRQAPGKERELVAAISKGGGSRTYYADSVQGRFTISRDTAKNTVYLQMNSLKPEDTAVYYCNADIWYGDMDYWGQGTQVTVSS: high polyreactivity
QVQLVESGGGLVQAGGSLRLNCAASGRIFVGNTMGWDRQAPGKERELVAAITVRGGSTYYADSVKGRFTISRDNAKNTVYLQMNSLKPEDTAVYYCAARRRIFPPRFGYWGQGTQVTVSS: high polyreactivity
HVQLLESGGGLVQAGGSLRLSCAASGSTFVYYAMGWYRQAPGKERELVAVITRGGRTYYADSVKGRFTISRDNAKTTVYLQMNSVKPEDSEVYYCNKVTPIYHDTVLDYWGQGTQVTVSS: high polyreactivity
